Here, each record is paired with measured IC50 data.
System: CEM cells HIV-1 protection, formazan growth assay
Test: NCI AIDS Antiviral Assay
Details: measured here: growth of uninfected CEM cells

# COMPOUND, IC50
measured = [
    ("CC(C)(C)C1CCC2(CC1)c1[nH]c3ccccc3c1C1(CCC(C(C)(C)C)CC1)c1[nH]c3ccccc3c12 (stereo unspecified)", "> 7.41 µM"),
    ("CN(C)CCCN1CCC2(CCSCC2)C1", "87.1 µM"),
    ("CC(C)N([P-]C(=O)[P-]N(C(C)C)C(C)C)C(C)C.[C-]#[O+].[C-]#[O+].[C-]#[O+].[C-]#[O+].[C-]#[O+].[C-]#[O+].[Fe].[Fe] (stereo unspecified)", "> 3.55 µM"),
    ("COc1ccc(C2CN(C(=O)c3ccccc3)N=C(c3ccccc3)O2)cc1 (stereo unspecified)", "> 17 µM"),
    ("COc1cc2c(cc1OC)C(=O)N1CSCC1C(=O)S2 (stereo unspecified)", "> 50.1 µM"),
]

Alright, here's another compound for you.
Lookup: Looking for the measured IC50 of O=C1OC(CC(=O)c2ccc(Cl)c(Cl)c2)C(Cl)=C1Cl (stereo unspecified) , can you help?
Found: > 75.9 µM
